Assign AC50 to each entry below.
system: TFEB; experiment: TFEB nuclear translocation assay, HeLa wt cells; format: cell-based; conditions: Homo sapiens, HeLa, 2 h, 2 hrs compound treatment, Table 1 does not say HeLa wt or TRPML1 KO

Prompt line: So what's the measured AC50 for this one? `CS(=O)(=O)c1ccc(S(=O)(=O)Nc2ccccc2N2CCC(c3c(F)cc(F)cc3F)CC2)cc1`
Response line: ≤ 2 µM

Prompt line: Next up: CC(c1cccc(F)c1N1CCC(CN2C[C@@H](C)C(F)(F)[C@@H](C)C2)CC1)S(=O)(=O)c1ccc(S(=O)(=O)N(C)C)cc1 (some centres unmarked)
Response line: ≤ 2 µM

Prompt line: What about this molecule? `C#Cc1cccc(NS(=O)(=O)c2ccc(S(=O)(=O)N(C)C)cc2)c1N1CCCCC1`
Response line: ≤ 2 µM

Prompt line: Then what about the molecule CC(c1cc(Cl)cnc1N1CCC(CN2CCC(F)(F)CC2)CC1)S(=O)(=O)c1ccc(S(=O)(=O)N(C)C)cc1 (centres unmarked) [Compound A-958] ?
Response line: ≤ 2 µM

Prompt line: Check `COC(C)(C)c1cccc(S(=O)(=O)Nc2ccccc2N2CCC3(CC2)COC(C)(C)C3)c1` too.
Response line: 2.01 to 8 µM

Prompt line: Try CN(C)S(=N)(=O)c1ccc(S(=O)(=O)Nc2ccccc2N2CCC(c3ccc(Cl)cc3F)CC2)cc1 (centres unmarked) next.
Response line: ≤ 2 µM

Prompt line: One more molecule: `O=S(=O)(Nc1ccccc1N1CCC(c2ccc(Cl)cc2F)CC1)c1ccccc1CO`
Response line: ≥ 10 µM

Prompt line: For `C[C@@H]1CN(CC2CCN(c3c(Br)cccc3NS(=O)(=O)c3ccc(S(=O)(=O)N(C)C)cc3)CC2)C[C@H](C)O1` then?
Response line: ≤ 2 µM

Prompt line: Continue with `CNC1(c2ccc(Cl)cc2F)CCN(c2ccccc2NS(=O)(=O)c2ccc(S(=O)(=O)N(C)C)cc2)CC1`
Response line: ≤ 2 µM

Prompt line: // repeat for CC(c1cccc(F)c1N1CCC2(CC1)COC(C)(C)C2)S(=O)(=O)c1ccc(S(=O)(=O)N(C)C)cc1 (centres unmarked) and report
Response line: ≤ 2 µM

Prompt line: Next molecule: CN(C)S(=O)(=O)c1ccc(S(=O)(=O)Nc2cccc(F)c2N2CCC(N3CCC4(CCOC4)C3)CC2)cc1 (centres unmarked) [Compound A-874]
Response line: 2.01 to 8 µM

Prompt line: Note, next up: `COCC1(C)CCN(c2ccccc2NS(=O)(=O)c2ccc(Cl)cc2)CC1`
Response line: 2.01 to 8 µM

Prompt line: What do you have for `CN(C)S(=O)(=O)c1ccc(S(=O)(=O)Nc2ccccc2N2CCN(C(=O)C3(CF)CCC3)CC2)cc1` ?
Response line: 2.01 to 8 µM

Prompt line: What would you report for `CC(C)(C)C(=O)N1CCN(c2ccccc2NS(=O)(=O)c2ccc(C(F)(F)F)cc2)CC1` ?
Response line: 2.01 to 8 µM

###

What AC50 was measured for each of the following?
system: TFEB; test: TFEB nuclear translocation assay, HeLa wt cells; type: cell-based; conditions: Homo sapiens, HeLa, 2 h, 2 hrs compound treatment, Table 1 does not say HeLa wt or TRPML1 KO

Prompt line: Lookup: AC50 / TFEB / `C[C@@H]1CN(CC2CCN(c3c(NS(=O)(=O)c4ccc(S(=O)(=O)N(C)C)cc4)cccc3C(F)F)CC2)C[C@H](C)O1`
Response line: ≤ 2000 nM

Prompt line: Repeat for the following compound: `CN(C)S(=O)(=O)c1ccc(S(=O)(=O)Nc2ccccc2N2CCC3(CC2)CN(Cc2ccccc2)c2cc(F)ccc23)cc1`
Response line: ≤ 2000 nM

Prompt line: Also need CC1(C)CC2(CCN(c3ccccc3NS(=O)(=O)c3ccc(C4CC4(F)F)cc3)CC2)CO1 (stereo not shown) , thanks.
Response line: ≤ 2000 nM

Prompt line: Likewise for CN(C)S(=O)(=O)c1ccc(NC(c2ccccc2N2CCC(c3ccc(Cl)cc3F)CC2)C(F)(F)F)cc1 (stereo not shown) ?
Response line: ≥ 10000 nM

Prompt line: Now this one: CC(c1ccccc1N1CCN(C(=O)C(C)(C)C)CC1)S(=O)(=O)c1ccc(S(=O)(=O)N(C)C)cc1 (stereo not shown)
Response line: 2010 to 8000 nM

Prompt line: Try the compound `CN(C)S(=O)(=O)c1ccc(S(=O)(=O)Nc2ccccc2N2CCC(C(C)(C)C)CC2)cc1`
Response line: ≤ 2000 nM

Prompt line: // query: `COc1ccc(S(=O)(=O)Nc2ccccc2N2CCN(Cc3ccc(F)cc3F)CC2)cc1`
Response line: ≥ 10000 nM
